molecular target: Cytochrome P450 2C19 (Homo sapiens); experiment: Inhibition of human recombinant CYP2C19
Sequence (P33261 whole entry): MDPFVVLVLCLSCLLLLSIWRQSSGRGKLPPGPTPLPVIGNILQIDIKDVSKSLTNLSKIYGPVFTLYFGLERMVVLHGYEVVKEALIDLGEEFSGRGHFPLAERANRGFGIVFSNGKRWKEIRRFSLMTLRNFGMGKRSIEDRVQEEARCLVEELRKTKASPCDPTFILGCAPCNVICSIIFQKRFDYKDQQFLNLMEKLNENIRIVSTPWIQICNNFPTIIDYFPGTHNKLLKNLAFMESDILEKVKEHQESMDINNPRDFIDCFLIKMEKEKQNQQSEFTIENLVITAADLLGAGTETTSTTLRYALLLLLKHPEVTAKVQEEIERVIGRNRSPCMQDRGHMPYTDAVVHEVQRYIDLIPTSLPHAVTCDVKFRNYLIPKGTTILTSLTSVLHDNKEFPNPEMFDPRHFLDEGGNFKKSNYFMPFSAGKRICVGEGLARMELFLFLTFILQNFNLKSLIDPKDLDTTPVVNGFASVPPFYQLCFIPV
pIC50: −log10 of the molar value.
Experimental readout: pIC50

[Q] Look up and report measured pIC50 (Cytochrome P450 2C19 (Homo sapiens)) for the following compound: O=C(O)CN1C(=O)C2(CC(=O)N(Cc3ccccc3)C2=O)c2cc(Cl)ccc21 (stereo unspecified)
[A] < 5.00

* * *

molecular target: Prostaglandin E2 receptor EP2 subtype (Homo sapiens, UniProt P43116); test: Inhibition of prostanoid EP2 receptor
Sequence (P43116 whole entry): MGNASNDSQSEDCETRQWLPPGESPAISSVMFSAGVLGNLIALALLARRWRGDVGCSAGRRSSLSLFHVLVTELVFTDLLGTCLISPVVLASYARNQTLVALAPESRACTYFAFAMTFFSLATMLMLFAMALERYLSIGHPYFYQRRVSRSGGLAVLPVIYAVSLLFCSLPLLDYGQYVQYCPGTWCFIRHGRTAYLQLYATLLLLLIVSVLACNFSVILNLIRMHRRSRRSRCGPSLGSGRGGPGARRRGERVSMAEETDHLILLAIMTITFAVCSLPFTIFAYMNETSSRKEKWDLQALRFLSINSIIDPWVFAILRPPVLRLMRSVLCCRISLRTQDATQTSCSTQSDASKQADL
# key: entry, value: IC50

O=C(O)CN1C(=O)[C@@]2(CC(=O)N(Cc3cc(Cl)ccc3F)C2=O)c2cc(Cl)ccc21 | > 30 µM

Okay, next one:
[Q] Complete the entry with IC50 for `O=C(O)CN1C(=O)[C@@]2(CC(=O)N(Cc3cccc(Cl)c3)C2=O)c2cc(Cl)ccc21`
[A] > 30 µM

* * *

experiment: Intrinsic clearance per mg of protein in human liver microsomes at 3 uM; assay type: ADME, Microsome
fulfilled if microsomal CLint at 3 µM is below 6 µL/min/mg. not fulfilled if not; exact matches included in not fulfilled.

O=C(O)CN1C(=O)[C@@]2(CC(=O)N(Cc3ccccc3F)C2=O)c2cc(Cl)ccc21 | not fulfilled
O=C(O)CN1C(=O)C2(CC(=O)N(Cc3cc(Cl)ccc3F)C2)c2cc(Cl)ccc21 (single isomer, unassigned; form 1) | fulfilled
COc1cccc(CN2C(=O)C[C@]3(C2=O)C(=O)N(CC(=O)O)c2ccc(Cl)cc23)c1 | not fulfilled
O=C(O)CN1C(=O)C2(CC(=O)N(Cc3cc(F)ccc3Cl)C2=O)c2cc(Cl)ccc21 (stereo not given) | fulfilled
O=C(O)CN1C(=O)[C@@]2(CC(=O)N(Cc3cccc(Cl)c3)C2=O)c2cc(Cl)ccc21 | fulfilled
O=C(O)CN1C(=O)C2(CC(=O)N(Cc3cc(F)cc(F)c3)C2=O)c2cc(Cl)ccc21 (stereo not given) | fulfilled

[Q] Just wondering, is microsomal CLint at 3 µM of `O=C(O)CN1C(=O)[C@@]2(CC(=O)N(Cc3cc(Cl)ccc3F)C2=O)c2cc(Cl)ccc21` below 6 µL/min/mg?
[A] fulfilled

[Q] Just wondering, is microsomal CLint at 3 µM of O=C(O)CN1C(=O)C2(CC(=O)N(Cc3ccc(F)c(F)c3)C2=O)c2cc(Cl)ccc21 (stereo not given) below 6 µL/min/mg?
[A] fulfilled

[Q] Just wondering, is microsomal CLint at 3 µM of O=C(O)CN1C(=O)C2(CC(=O)N(Cc3cc(F)cc(Cl)c3)C2=O)c2cc(Cl)ccc21 (stereo not given) below 6 µL/min/mg?
[A] not fulfilled

* * *

Target: Prostaglandin D2 receptor 2 (Homo sapiens)
Sequence (Q9Y5Y4 whole entry): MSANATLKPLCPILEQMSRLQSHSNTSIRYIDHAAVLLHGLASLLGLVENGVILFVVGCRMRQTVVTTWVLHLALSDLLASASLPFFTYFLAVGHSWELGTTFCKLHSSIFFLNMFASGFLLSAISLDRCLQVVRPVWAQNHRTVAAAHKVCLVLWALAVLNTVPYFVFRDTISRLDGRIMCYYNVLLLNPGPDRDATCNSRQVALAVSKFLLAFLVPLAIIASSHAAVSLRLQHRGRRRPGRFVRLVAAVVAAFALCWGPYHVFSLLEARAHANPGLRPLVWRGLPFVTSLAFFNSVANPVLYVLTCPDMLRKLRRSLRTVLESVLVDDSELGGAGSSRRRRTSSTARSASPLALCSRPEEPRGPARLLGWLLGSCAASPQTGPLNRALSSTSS
Experiment: Displacement of [3H]PGD2 from human CRTH2 receptor expressed in CHO cells
Experimental readout: log10(Ki) (log10 of the value in nM)
Hey, these are logged values: log10 of Ki, nM being the unit before logging.

[Q] Complete the entry with log10(Ki) for `O=C(O)CN1C(=O)[C@@]2(CC(=O)N(Cc3ccccc3)C2=O)c2cc(Cl)ccc21`
[A] 1.91

[Q] Complete the entry with log10(Ki) for O=C(O)CN1C(=O)C2(CC(=O)N(Cc3csc(-c4ccc(Cl)cc4)n3)C2=O)c2cc(Cl)ccc21 (stereo not drawn)
[A] 1.74

[Q] Complete the entry with log10(Ki) for O=C(O)CN1C(=O)C2(CC(=O)N(Cc3cc(F)cc(Cl)c3)C2=O)c2cc(Cl)ccc21 (stereo not drawn)
[A] 1.30

[Q] Complete the entry with log10(Ki) for O=C(O)CN1C(=O)C2(CC(=O)N(Cc3ccccc3)C2)c2cc(Cl)ccc21 (stereo not drawn)
[A] 2.85

[Q] Complete the entry with log10(Ki) for O=C(O)CCCN1C(=O)C2(CC(=O)N(Cc3ccccc3)C2=O)c2cc(Cl)ccc21 (stereo not drawn)
[A] 3.22

* * *

experiment: Apparent permeability across human Caco-2 cell membrane at 10 uM; assay type: ADME, cell-based
# key: entry, value: Papp at 10 µM
Hi! Could you send only the number? It should be in ×10⁻⁶ cm/s, unit omitted.

Use these answered entries as a reference point.
O=C(O)CN1C(=O)C2(CC(=O)N(Cc3ccccc3)C2=O)c2cc(Cl)ccc21 (stereo unspecified) | 3
Cc1noc(-c2ccccc2)c1CN1CC2(CC1=O)C(=O)N(CC(=O)O)c1ccc(Cl)cc12 (stereo unspecified) | 2.1
O=C(O)CN1C(=O)[C@@]2(CC(=O)N(Cc3ccccc3F)C2=O)c2cc(Cl)ccc21 | 2.4
O=C(O)CN1C(=O)C2(CC(=O)N(Cc3cc(Cl)ccc3F)C2)c2cc(Cl)ccc21 (single isomer, unassigned; form 1) | 1.8

[Q] Complete the entry with Papp at 10 µM for `COc1cccc(CN2C(=O)C[C@]3(C2=O)C(=O)N(CC(=O)O)c2ccc(Cl)cc23)c1`
[A] 0.8

[Q] Complete the entry with Papp at 10 µM for `O=C(O)CN1C(=O)[C@@]2(CC(=O)N(Cc3cc(Cl)ccc3F)C2=O)c2cc(Cl)ccc21`
[A] 26.4

* * *

target: Prostaglandin D2 receptor 2 (Homo sapiens); assay: Antagonist activity at human CRTH2 receptor expressed in CHO cell membrane by [35S]GTP-gamma-S binding assay
pIC50: −log10 of the molar value.
The label depends only on pIC50: true (1) if it is at least 7, false (0) if it is smaller.

Answered examples (3):
O=C(O)CN1C(=O)C2(CC(=O)N(Cc3cc(Cl)ccc3F)C2=O)c2cc(Cl)ccc21 (stereo unspecified) | true (1)
O=C(O)CN1C(=O)C2(CC(=O)N(Cc3cccc(F)c3F)C2=O)c2cc(Cl)ccc21 (stereo unspecified) | false (0)
O=C(O)CN1C(=O)C2(CC(=O)N(Cc3ccccc3F)C2=O)c2cc(Cl)ccc21 (stereo unspecified) | false (0)

[Q] Does Cc1nc(CN2C(=O)CC3(C2=O)C(=O)N(CC(=O)O)c2ccc(Cl)cc23)cs1 (stereo unspecified) have a reported pIC50 of at least 7?
[A] false (0)

* * *

experiment: Clearance in rat at 1 mg/kg, iv; type: ADME, organism-based; parameters: dose 1 mg/kg, route intravenous; details: in vivo
Experimental readout: clearance (mL/min/kg)
Hi! Could you send only the number? It should be in mL/min/kg, unit omitted.

Use these answered entries as a reference point.
O=C(O)CN1C(=O)[C@@]2(CC(=O)N(Cc3cc(Cl)ccc3F)C2=O)c2cc(Cl)ccc21 | 11.7
O=C(O)CN1C(=O)C2(CC(=O)N(Cc3cc(Cl)ccc3F)C2)c2cc(Cl)ccc21 (single isomer, unassigned; form 1) | 11.7
Cc1noc(-c2ccccc2)c1CN1CC2(CC1=O)C(=O)N(CC(=O)O)c1ccc(Cl)cc12 (centres undefined) | 66.7

[Q] Complete the entry with clearance for `O=C(O)CN1C(=O)[C@@]2(CC(=O)N(Cc3ccccc3F)C2=O)c2cc(Cl)ccc21`
[A] 13.3

* * *

molecular target: Cytochrome P450 3A4 (Homo sapiens); assay: Inhibition of human recombinant CYP3A4
Sequence (P08684 whole entry): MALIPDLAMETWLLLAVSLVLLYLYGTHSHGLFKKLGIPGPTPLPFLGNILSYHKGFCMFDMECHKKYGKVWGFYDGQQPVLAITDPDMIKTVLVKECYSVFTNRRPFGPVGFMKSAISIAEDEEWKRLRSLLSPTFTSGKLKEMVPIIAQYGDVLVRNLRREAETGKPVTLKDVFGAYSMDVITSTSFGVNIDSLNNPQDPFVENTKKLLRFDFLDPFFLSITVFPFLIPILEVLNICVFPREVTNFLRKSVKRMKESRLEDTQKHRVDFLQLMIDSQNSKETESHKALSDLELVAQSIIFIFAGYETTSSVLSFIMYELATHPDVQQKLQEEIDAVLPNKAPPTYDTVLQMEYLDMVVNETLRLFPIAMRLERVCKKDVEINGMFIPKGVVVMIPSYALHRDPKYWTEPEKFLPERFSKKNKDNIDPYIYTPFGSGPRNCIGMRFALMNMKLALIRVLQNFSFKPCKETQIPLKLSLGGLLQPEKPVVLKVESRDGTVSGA
pIC50: −log10 of the molar value.
Experimental readout: pIC50

[Q] Complete the entry with pIC50 for O=C(O)CN1C(=O)C2(CC(=O)N(Cc3ccccc3)C2=O)c2cc(Cl)ccc21 (stereo unspecified)
[A] < 5.00

* * *

assay: Tmax in Beagle dog at 1 mg/kg, iv; assay type: ADME, organism-based, Canis lupus familiaris; design: dose 1 mg/kg, route intravenous; conditions: in vivo
Experimental readout: Tmax (h)
Hi! Could you send only the number? It should be in h, unit omitted.

O=C(O)CN1C(=O)[C@@]2(CC(=O)N(Cc3ccccc3F)C2=O)c2cc(Cl)ccc21 | 0

Okay, next one:
[Q] Complete the entry with Tmax for `O=C(O)CN1C(=O)[C@@]2(CC(=O)N(Cc3cc(Cl)ccc3F)C2=O)c2cc(Cl)ccc21`
[A] 0

* * *

test: Volume of distribution at steady state in rat at 1 mg/kg, iv; type: ADME, organism-based; set-up: dose 1 mg/kg, route intravenous; conditions: in vivo, read-out: Vdss
Experimental readout: Vd
The number alone won't do; follow it with the unit.

O=C(O)CN1C(=O)[C@@]2(CC(=O)N(Cc3cc(Cl)ccc3F)C2=O)c2cc(Cl)ccc21 | 7 L/kg
O=C(O)CN1C(=O)[C@@]2(CC(=O)N(Cc3ccccc3F)C2=O)c2cc(Cl)ccc21 | 0.9 L/kg
O=C(O)CN1C(=O)C2(CC(=O)N(Cc3cc(Cl)ccc3F)C2)c2cc(Cl)ccc21 (single isomer, unassigned; form 1) | 0.3 L/kg

Okay, next one:
[Q] Complete the entry with Vd for Cc1noc(-c2ccccc2)c1CN1CC2(CC1=O)C(=O)N(CC(=O)O)c1ccc(Cl)cc12 (centres undefined)
[A] 0.4 L/kg
